- Protocol summary: Plasma pharmacokinetics of niraparib and M1 by validated LC-MS/MS after a single oral 300 mg dose of 14C-niraparib
- Assay type: in vivo
- Stated conditions: human, in vivo, oral; cancer patients, across the clinical studies; read-out: apparent Vd/F, collective conclusion
- Method: Dose reductions were allowed twice. […] All patients provided written informed consent. Blood sampling was done at the following time points: pre-dose, 1, 1.5, 2, 3, 4, 6, 9 and 12 hours (h) after administration and in the morning of Day 2, 3, 4, 5, 8, 11, 15 and 22. […] Separate aliquots were made for radioactivity measurements as well as LC-MS/MS and metabolite profiling experiments. […] Quality control samples were prepared and analysed together with the study samples. […]
Reported metric: Vd/F

Vd/F for NC(=O)c1cccc2cn(-c3ccc([C@@H]4CCCNC4)cc3)nc12 [niraparib] is ≥ 1000 L
